// provenance: patent US8974768B2

- Experimental target: Aβ1-42 peptide (Homo sapiens)
- Sequence (P05067 672-713): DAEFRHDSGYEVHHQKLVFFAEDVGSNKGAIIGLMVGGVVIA
- Test method notes: Thioflavin T (Thio T)-assay of Aβ aggregation
- Format: biochemical
- Condition description: 30 μM Aβ1-42 peptide, 48 h at 37° C., vs DMSO control; read-out: ThioT: IC50
Measured property: pIC50
Scale: pIC50 equals -log10([C]), with [C] in mol/L.

Molecule: O=C(O)c1cc(N=Nc2ccc(-c3ccc(N=Nc4ccc(O)c(C(=O)O)c4)cc3)cc2)ccc1O [C, reference compound]
Measured number: 6.30

Molecule: Oc1ccc(N=Nc2ccccn2)c(O)c1
Measured number: 5.52

Molecule: O=C(O)c1ccccc1N=Nc1ccc(O)cc1 [B, reference compound]
Measured number: 3.13

Kindly consider the entry below.
Input line: State its pIC50 for this molecule: `c1ccc(N=Nc2ccc(Nc3ccccc3)cc2)cc1`
Output line: 5.35
